Data origin: patent EP0807626A1

# target desc: lipoxygenase (Rattus norvegicus, UniProt P12527)
# Construct: the peritoneal cavities were lavaged and the polymorphonuclear leukocytes were recovered; endogenous in cells
# Sequence (P12527 whole entry): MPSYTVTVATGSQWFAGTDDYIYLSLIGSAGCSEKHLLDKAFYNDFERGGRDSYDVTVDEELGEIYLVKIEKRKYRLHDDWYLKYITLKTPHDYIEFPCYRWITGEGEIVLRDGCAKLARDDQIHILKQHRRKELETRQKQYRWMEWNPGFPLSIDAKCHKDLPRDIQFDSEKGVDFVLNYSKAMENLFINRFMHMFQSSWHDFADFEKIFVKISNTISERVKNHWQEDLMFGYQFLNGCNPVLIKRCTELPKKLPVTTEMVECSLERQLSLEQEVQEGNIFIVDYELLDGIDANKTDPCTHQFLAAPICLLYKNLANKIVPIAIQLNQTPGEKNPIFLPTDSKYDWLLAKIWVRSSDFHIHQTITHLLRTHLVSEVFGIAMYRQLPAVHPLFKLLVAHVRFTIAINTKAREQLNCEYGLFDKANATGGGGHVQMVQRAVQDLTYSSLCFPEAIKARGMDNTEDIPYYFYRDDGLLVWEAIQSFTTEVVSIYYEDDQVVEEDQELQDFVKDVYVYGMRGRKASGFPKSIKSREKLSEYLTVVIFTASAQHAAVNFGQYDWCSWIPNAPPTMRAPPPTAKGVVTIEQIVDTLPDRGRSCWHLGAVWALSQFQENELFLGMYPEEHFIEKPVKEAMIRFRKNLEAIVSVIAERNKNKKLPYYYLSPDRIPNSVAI
# protocol notes: Test of lipoxygenase inhibitory action (production of leukotriene B4 in rat polymorphonuclear leukocytes)
# run parameters: inhibiting the production of leukotriene B4, calcium ionophore A-23187, EIA, read-out: LTBI IC50
# note: exactly 60 nM is not below, so it is false (0); use true (1) for IC50 strictly under it

is_below(IC50, 60 nM) for NC(=O)N(O)CCCCCCC(c1ccccc1)c1cccnc1 (stereo not drawn) ?
false (0)

Regarding `O=C(NC1CCCCC1)N(O)CCCCC/C=C(/c1ccccc1)c1cccnc1` , kindly confirm whether its IC50 is beneath 60 nM.
true (1)

is_below(IC50, 60 nM) for COc1cccc(NC(=O)N(O)CCCC(c2ccccc2)c2cccnc2)c1 (stereo not drawn) ?
false (0)

Decide: IC50 of NC(=O)N(O)Cc1cccc(CC(c2ccccc2)c2cccnc2)c1 (stereo not drawn) strictly below 60 nM?
false (0)

Field: below-cutoff. Rule: recorded IC50 strictly less than 60 nM. Subject: COc1cccc(NC(=O)N(O)CCCCCCC(c2ccccc2)c2cccnc2)c1 (stereo not drawn)
true (1)

* * *

// values below are reported pIC50
# target desc: thromboxane synthase (Homo sapiens, UniProt P24557)
# Construct: containing human platelet microsomes (50 µg protein/ml) and the test compound; from tissue; host or cells: human platelet microsomes
# Sequence (P24557 1-533): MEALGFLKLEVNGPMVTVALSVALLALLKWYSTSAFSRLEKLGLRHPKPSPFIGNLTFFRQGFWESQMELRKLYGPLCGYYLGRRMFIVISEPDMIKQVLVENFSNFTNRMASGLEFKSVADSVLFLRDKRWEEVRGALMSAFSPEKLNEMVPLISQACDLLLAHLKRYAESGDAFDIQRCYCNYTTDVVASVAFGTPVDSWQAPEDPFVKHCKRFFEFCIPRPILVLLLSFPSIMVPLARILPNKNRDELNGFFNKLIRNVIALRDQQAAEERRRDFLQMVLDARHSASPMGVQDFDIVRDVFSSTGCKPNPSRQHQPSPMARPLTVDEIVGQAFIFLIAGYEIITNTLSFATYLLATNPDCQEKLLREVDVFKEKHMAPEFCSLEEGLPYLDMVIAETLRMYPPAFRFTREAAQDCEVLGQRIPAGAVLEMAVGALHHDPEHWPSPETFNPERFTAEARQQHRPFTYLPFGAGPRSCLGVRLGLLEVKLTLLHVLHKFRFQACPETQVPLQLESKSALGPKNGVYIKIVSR
# protocol notes: Test of thromboxane synthase inhibitory action (production of thromboxane B2 in human platelet microsomes)
# Format: biochemical
# run parameters: suppressing production of thromboxane (thromboxane B2), prostaglandin H2, EIA, read-out: TxSI IC50
Scale explanation: pIC50 corresponds to minus log10 of a concentration expressed in moles per litre.

Solved cases below.
O=C(NC1CCCCC1)N(O)Cc1cccc(OC(c2ccccc2)c2cccnc2)c1 (centres unmarked) ... 8.30
CC(c1cccc(CC(c2ccccc2)c2cccnc2)c1)N(O)C(N)=O (centres unmarked) ... 7.52
COc1cccc(NC(=O)N(O)CCCCCCC(c2ccccc2)c2cccnc2)c1 (centres unmarked) ... 8.70
NC(=O)N(O)CCC=C(c1cccnc1)c1cccc(C(F)(F)F)c1 ... 8.22
O=C(NC1CCCCC1)N(O)CCCCC/C=C(/c1ccccc1)c1cccnc1 ... 8.05

Sample NC(=O)N(O)C/C=C/CCCC(c1ccccc1)c1cccnc1 (centres unmarked) ; pIC50 observed: 7.52

// recorded pIC50 for NC(=O)N(O)CCCCCCC(c1ccccc1)c1cccnc1 (centres unmarked) : 8.00

For NC(=S)N(O)CCCCCC(c1ccccc1)c1cccnc1 (centres unmarked) the compound record lists pIC50 as 8.40

Kindly note the recorded pIC50 for NC(=O)N(O)Cc1ccc(OC(c2ccccc2)c2cccnc2)cc1 (centres unmarked) , which is 7.30

// pIC50 lookup, compound = CC(CCCCCCCC(c1ccccc1)c1cccnc1)N(O)C(=S)NC1CCCCC1 (centres unmarked) , result: 8.05

Lookup result for `NC(=O)N(O)CCCCC/C=C(/c1ccccc1)c1cccnc1` ; measured pIC50: 7.70

Given item COc1cccc(NC(=O)N(O)Cc2cccc(OC(c3ccccc3)c3cccnc3)c2)c1 (centres unmarked) , the value recorded as its pIC50 is 8.22

Notebook: O=C(NC1CCCCC1)N(O)CCCCCCC(c1ccccc1)c1cccnc1 (centres unmarked) , pIC50 read as 8.30

In plain terms, NC(=O)N(O)Cc1cccc(CC(c2ccccc2)c2cccnc2)c1 (centres unmarked) has a documented pIC50 of 7.70

The recorded pIC50 for CC(c1cccc(OC(c2ccccc2)c2cccnc2)c1)N(O)C(N)=O (centres unmarked) is 8.05

Entry under test: `NC(=O)N(O)CCCCC/C=C(\c1ccccc1)c1cccnc1` . Its pIC50 was 9.05

pIC50 reading for COc1cccc(NC(=O)N(O)CCCC(c2ccccc2)c2cccnc2)c1 (centres unmarked) : 8.70

Lab note: measured pIC50 of CC(/C=C/CCCC(c1ccccc1)c1cccnc1)N(O)C(N)=O (centres unmarked) was 8.30

In plain terms, O=C(NC1CCCCC1)N(O)CCCC(c1ccccc1)c1cccnc1 (centres unmarked) has a documented pIC50 of 9.52

pIC50 measured on ON(CCCCCCCC(c1ccccc1)c1cccnc1)C(=S)Nc1ccccc1 (centres unmarked) = 8.70
